- Assay comment: Uncompetitive inhibition of bovine kidney alpha-fucosidase using p-nitrophenyl glycopyranoside as substrate preincubated for 5 mins followed by substrate addition and measured after 20 mins by Lineweaver-Burk plot analysis
- Design: species or system Bos taurus
Reported log10(Ki) values follow for various molecules
In plain terms, each number is the log10 of measured Ki in nM.

Please review the following examples before continuing.
C#C[C@H]1[C@H](O)[C@H](O)[C@H](C)N1C(=O)OC(C)(C)C
0.00
C[C@@H]1N[C@@H](c2cn(CCCCCCn3cc([C@@H]4N[C@@H](C)[C@@H](O)[C@H]4O)nn3)nn2)[C@H](O)[C@@H]1O
2.38
C[C@@H]1N[C@@H](c2cn(CCOCCOCCOCCn3cc([C@@H]4N[C@@H](C)[C@@H](O)[C@H]4O)nn3)nn2)[C@H](O)[C@@H]1O
2.12
C[C@@H]1N[C@@H](c2c[nH]nn2)[C@H](O)[C@@H]1O
3.62
C[C@@H]1N[C@@H](c2cn(-c3ccccc3)nn2)[C@H](O)[C@@H]1O
1.82

Consider now this further molecule.
log10(Ki) lookup needed for `C[C@@H]1N[C@@H](c2cn(-c3ccc(S(=O)(=O)c4ccc(N=[N+]=[N-])cc4)cc3)nn2)[C@H](O)[C@@H]1O` , thanks. 0.00

----------
- Target or test system: Beta-galactosidase (Bos taurus)
- Sequence (Q58D55 whole entry): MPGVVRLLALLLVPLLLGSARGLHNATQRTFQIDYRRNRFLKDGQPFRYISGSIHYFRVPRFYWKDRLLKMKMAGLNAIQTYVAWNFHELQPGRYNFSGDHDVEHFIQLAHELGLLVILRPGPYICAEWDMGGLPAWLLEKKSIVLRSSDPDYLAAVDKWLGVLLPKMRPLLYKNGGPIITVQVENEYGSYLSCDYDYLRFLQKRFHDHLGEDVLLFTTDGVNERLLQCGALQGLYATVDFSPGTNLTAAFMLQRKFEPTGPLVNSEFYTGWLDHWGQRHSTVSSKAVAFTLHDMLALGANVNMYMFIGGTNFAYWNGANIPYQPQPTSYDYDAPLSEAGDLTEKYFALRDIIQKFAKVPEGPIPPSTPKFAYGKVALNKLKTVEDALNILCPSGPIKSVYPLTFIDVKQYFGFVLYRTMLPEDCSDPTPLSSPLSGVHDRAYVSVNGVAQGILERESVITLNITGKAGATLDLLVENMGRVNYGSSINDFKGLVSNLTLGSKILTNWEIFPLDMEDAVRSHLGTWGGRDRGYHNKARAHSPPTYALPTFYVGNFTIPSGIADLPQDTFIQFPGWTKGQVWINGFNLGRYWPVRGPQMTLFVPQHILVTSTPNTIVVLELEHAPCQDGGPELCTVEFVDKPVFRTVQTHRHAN
Measured property: pIC50
pIC50 here: minus log base 10 of the concentration, concentration in moles per litre.

Which value of pIC50 has been reported for `CCCCCCn1cc(CNC(=O)c2cc([C@H]3NC[C@@H](O)[C@H]3O)oc2C)nn1` in the records? 4.03

----------
- Assay comment: Uncompetitive inhibition of human alpha-fucosidase using p-nitrophenyl glycopyranoside as substrate preincubated for 5 mins followed by substrate addition and measured after 20 mins by Lineweaver-Burk plot analysis
Measured property: Ki

Report Ki for `C[C@@H]1N[C@@H](c2cn(CCCCCCn3cc([C@@H]4N[C@@H](C)[C@@H](O)[C@H]4O)nn3)nn2)[C@H](O)[C@@H]1O` please. 7.1 µM

// returns reported Ki for input `C[C@@H]1N[C@@H](c2cn(-c3ccc(S(=O)(=O)c4ccc(N=[N+]=[N-])cc4)cc3)nn2)[C@H](O)[C@@H]1O` 0.58 µM

Requested read-out: Ki. Entry: `C[C@@H]1N[C@@H](c2cn(CCOCCOCCOCCn3cc([C@@H]4N[C@@H](C)[C@@H](O)[C@H]4O)nn3)nn2)[C@H](O)[C@@H]1O` 11.1 µM

Quick one: Ki for `C[C@@H]1N[C@@H](c2c[nH]nn2)[C@H](O)[C@@H]1O` ? 34 µM

Given `C[C@@H]1N[C@@H](c2cn(-c3ccccc3)nn2)[C@H](O)[C@@H]1O` , state its recorded Ki. 5.5 µM
